The entries below come with measured log10 IC50 values attached.
Tested on: p-ERK in PNAC-1/HPAC cell
Test: Phospho-ERK 1/2 assay (Table 1)
Assay type: cell-based
Details: Homo sapiens; PNAC-1/HPAC cell, 3 hours compound incubation; read-out: p-ERK IC50
value type: log10 IC50 (log10 of the value in nM)

compound	log10 IC50
C#Cc1c(F)ccc2cccc(-c3nc4c5c(nc(C(=O)N[C@H](C)CN(C)C)nc5c3F)N3CC5CCC(N5)[C@H]3CO4)c12 (stereo in doubt)	1.88
N#Cc1cccc2cccc(-c3nc4c5c(nc(OC[C@@]67CCCN6C[C@H](F)C7)nc5c3F)N3C[C@@H]5CC[C@@H](N5)C3CO4)c12 (stereo partly shown)	2.87
C#Cc1cccc2cccc(-c3nc4c5c(nc(OC[C@@]67CCCN6C[C@H](F)C7)nc5c3F)N3C[C@H]5CC[C@H](N5)[C@H]3CO4)c12	1.00
CC(=O)c1cccc2cc(O)cc(-c3nc4c5c(nc(OC[C@@]67CCCN6C[C@H](F)C7)nc5c3F)N3C[C@H]5CC[C@H](N5)[C@H]3CO4)c12	2.17
Oc1cc(-c2nc3c4c(nc(OC[C@@]56CCCN5C[C@H](F)C6)nc4c2F)N2C[C@@H]4CC[C@@H](N4)C2CO3)c2c(F)cccc2c1 (stereo partly shown)	1.93
C#Cc1c(F)ccc2cccc(-c3nc4c5c(nc(OC[C@@H]6C[C@@H](F)CN6C)nc5c3F)N3CC5CCC(N5)[C@H]3CO4)c12 (stereo in doubt)	2.15
Fc1c(-c2cccc3cccc(Cl)c23)nc2c3c(nc(OC[C@@]45CCCN4C[C@H](F)C5)nc13)N1C[C@@H]3CC[C@@H](N3)C1CO2 (stereo partly shown)	1.83
Oc1cc(-c2nc3c4c(nc(OC[C@@]56CCCN5C[C@H](F)C6)nc4c2F)N2C[C@H]4CC[C@H](N4)[C@H]2CO3)c2c(Cl)cccc2c1	0.70
Fc1cccc(-c2nc3c4c(nc(OC[C@@]56CCCN5C[C@H](F)C6)nc4c2F)N2C[C@@H]4CC[C@@H](N4)C2CO3)c1C1CC1 (stereo partly shown)	3.09
C#Cc1c(F)ccc2cccc(-c3nc4c5c(nc(OCC67CCCN6C(COC(=O)N6CCOCC6)CC7)nc5c3F)N3CC5CCC(N5)[C@H]3CO4)c12 (stereo in doubt)	2.02
CCc1c(F)ccc2cccc(-c3nc4c5c(nc(OC[C@@]67CCCN6C[C@H](F)C7)nc5c3F)N3C[C@@H]5CC[C@@H](N5)C3CO4)c12 (stereo partly shown)	2.08
[2H]C#Cc1c(F)ccc2cccc(-c3nc4c5c(nc(OC[C@@]67CCCN6C[C@H](F)C7)nc5c3F)N3CC5CCC(N5)[C@H]3CO4)c12 (stereo in doubt)	0.70
C#Cc1c(F)ccc2cccc(-c3nc4c5c(nc(OCC6(CN7CCOC8(CC8)C7)CC6)nc5c3F)N3CC5CCC(N5)[C@H]3CO4)c12 (stereo in doubt)	2.52
Fc1ccc2cccc(-c3nc4c5c(nc(OC[C@@]67CCCN6C[C@H](F)C7)nc5c3F)N3C[C@@H]5CC[C@@H](N5)C3CO4)c2c1F (stereo partly shown)	2.15
Fc1c(-c2cccc(Cl)c2C2CC2)nc2c3c(nc(OC[C@@]45CCCN4C[C@H](F)C5)nc13)N1C[C@@H]3CC[C@@H](N3)C1CO2 (stereo partly shown)	2.57
C#Cc1cccc2cc(O)cc(-c3nc4c5c(nc(OC[C@@]67CCCN6C[C@H](F)C7)nc5c3F)N3C[C@@H]5CC[C@@H](N5)C3CO4)c12 (stereo partly shown)	1.89
C#Cc1c(F)ccc2cccc(-c3nc4c5c(nc(OC[C@@]67CCCN6C[C@H](F)C7)nc5c3F)N3CC5CCC(N5)[C@H]3CO4)c12 (single isomer, unassigned)	0.30
C#Cc1c(F)ccc2cc(O)cc(-c3nc4c5c(nc(OC[C@@]67CCCN6C[C@H](F)C7)nc5c3F)N3C[C@@H]5CC[C@@H](N5)C3CO4)c12 (stereo partly shown)	1.53
C#Cc1cccc2cccc(-c3nc4c5c(nc(OC[C@@]67CCCN6C[C@H](F)C7)nc5c3F)N3C[C@@H]5CC[C@@H](N5)C3CO4)c12 (stereo partly shown)	1.46
CCCCCCCCCC(=O)OCOC(=O)N1[C@@H]2CC[C@H]1[C@H]1COc3nc(-c4cc(O)cc5ccc(F)c(CC)c45)c(F)c4nc(OC[C@@]56CCCN5C[C@H](F)C6)nc(c34)N1C2	0.54
C#Cc1c(F)ccc2cccc(-c3nc4c5c(nc(OC[C@@]67CCCN6C[C@H](F)C7)nc5c3F)N3CC5CCC(N5)C3CO4)c12 (stereo partly shown)	0.95
N#Cc1c(N)sc2cccc(-c3nc4c5c(nc(OC[C@@]67CCCN6C[C@H](F)C7)nc5c3F)N3C[C@@H]5CC[C@@H](N5)C3CO4)c12 (stereo partly shown)	2.69
